Data credit: PubChem BioAssay (NCI)

tested on: HOP-92 NSCLC; assay: NCI tumour cell line growth inhibition, 48 h
I'd be grateful if you could share measured TGI for these entries.

Q: Any idea what its TGI is? The compound is Cc1ccc(S(=O)(=O)Nn2c(C)cc3ccc(S(=O)(=O)Nc4ccccc4[N+](=O)[O-])cc3c2=O)cc1
Ans: > 100 µM

Q: Any idea what its TGI is? The compound is COc1ccccc1/C=C1\N=C(C)OC1=O
Ans: > 100 µM

Q: Any idea what its TGI is? The compound is N#Cc1nc(-c2ccccc2O)oc1N
Ans: > 100 µM

Q: Any idea what its TGI is? The compound is O=C(O)c1ccccc1-c1ccccc1C(=O)Nc1ccc2c(c1)Cc1ccccc1-2
Ans: > 100 µM

Q: Any idea what its TGI is? The compound is CC1C2CC(CC2O)C1(C)C (stereo unspecified)
Ans: > 100 µM

Q: Any idea what its TGI is? The compound is CC(=O)OCC1OC(N2C(=O)CC(N)=Nc3ccccc32)C(OC(C)=O)C(OC(C)=O)C1OC(C)=O (stereo unspecified)
Ans: > 100 µM

Q: Any idea what its TGI is? The compound is N=c1oc2ccc([N+](=O)[O-])cc2cc1C(=O)Nc1ccccn1
Ans: > 100 µM

Q: Any idea what its TGI is? The compound is CC1(C)CC(=O)C(CC2C(=O)c3ccccc3C2=O)C(=O)C1C(=O)C(=O)Nc1cccc2ccc(O)cc12 (stereo unspecified)
Ans: > 100 µM

Q: Any idea what its TGI is? The compound is COc1ccccc1NC(=O)CC(=O)n1nc(-c2ccccc2)c(N=Nc2ccccc2[N+](=O)[O-])c1-c1ccccc1
Ans: > 100 µM

Q: Any idea what its TGI is? The compound is CC(=O)C(CN(C)Cc1ccccc1)C(c1ccccc1)c1c(O)c2ccccc2oc1=O (stereo unspecified)
Ans: > 100 µM

Q: Any idea what its TGI is? The compound is CCNC(=S)Nc1c(C#N)c2n(c1C(=O)OCC)CCCCC2
Ans: > 100 µM

Q: Any idea what its TGI is? The compound is [CH3][Sn]([CH3])([CH3])[O]C(=O)C(O)c1ccccc1 (stereo unspecified)
Ans: 14.4 µM

Q: Any idea what its TGI is? The compound is CC(=O)[C@H]1[C@@H](OCc2ccccc2)O[N+]([O-])=C(C)[C@@H]1c1ccccc1
Ans: 62.4 µM

Q: Any idea what its TGI is? The compound is OC1=CN=C(C2CC2)Oc2ccccc21
Ans: > 100 µM

Q: Any idea what its TGI is? The compound is O=[P+](O)c1cccs1
Ans: > 100 µM

Q: Any idea what its TGI is? The compound is O=S(=O)(c1ccccc1)[C@@H]1[C@H]2C=C[C@](CS)(O2)[C@H]1S(=O)(=O)c1ccccc1
Ans: > 100 µM

Q: Any idea what its TGI is? The compound is C=CCN1C(=O)/C(=C/c2ccccc2)N=C1SC1OC(COC(C)=O)C(OC(C)=O)C(OC(C)=O)C1OC(C)=O (stereo unspecified)
Ans: 76.6 µM

Q: Any idea what its TGI is? The compound is CN(C)C=NCc1ccc2c(c1)OCO2
Ans: > 100 µM

Q: Any idea what its TGI is? The compound is Cc1ccc(S(=O)(=O)Nc2cccc(C)c2C)cc1
Ans: > 100 µM

Q: Any idea what its TGI is? The compound is Oc1ccc(NCc2cc(O)ccc2O)cc1
Ans: 31.5 µM

Q: Any idea what its TGI is? The compound is O=C(NC1CCNCC1)c1[nH]ncc1NC(=O)c1c(Cl)cccc1Cl
Ans: 0.671 µM

* * *

tested on: SF-295 CNS; assay: NCI tumour cell line growth inhibition, 48 h
I'd be grateful if you could share measured TGI for these entries.

Q: Any idea what its TGI is? The compound is CCn1c(SCC(=O)NNC(=S)Nc2ccc(Cl)cc2)nc2ccccc2c1=O
Ans: > 100 µM

Q: Any idea what its TGI is? The compound is CC(C)(C)C1CCP(=O)(c2ccccc2)CC1 (centres undefined)
Ans: > 100 µM

Q: Any idea what its TGI is? The compound is COc1ccc(/C=c2\sc3nnc(CCC(=O)Nc4cccc(C(F)(F)F)c4)n3c2=O)cc1
Ans: > 100 µM

Q: Any idea what its TGI is? The compound is COC(=O)c1c2c(c(C)[n+]([O-])c1C)C(=O)C=C(NCc1ccc(Br)cc1)C2=O
Ans: 1.32 µM

Q: Any idea what its TGI is? The compound is O=C(Nc1ccccc1)c1cc2c(cc1Cl)SC(NNCCO)=NS2(=O)=O
Ans: > 100 µM

Q: Any idea what its TGI is? The compound is O=S(=O)(c1ccccc1)n1cnc(CCc2ccccc2)n1
Ans: > 100 µM

Q: Any idea what its TGI is? The compound is O=C(O)CN(CC(=O)O)c1ccccc1
Ans: > 100 µM

Q: Any idea what its TGI is? The compound is Cc1cc(NS(=O)(=O)c2ccc(NC(=O)COc3ccc(-c4cc5ccccc5[nH]4)cc3)cc2)no1
Ans: 4.91 µM

Q: Any idea what its TGI is? The compound is COc1ccc(C2c3cc4c(c(OC)c3CC3OCC(=O)C32)OCO4)cc1OC (centres undefined)
Ans: < 0.01 µM

Q: Any idea what its TGI is? The compound is CC(C)(C)OC(=O)N(CCCCNC(=O)c1ccccc1)CCCNC(=O)c1ccccc1
Ans: > 100 µM

Q: Any idea what its TGI is? The compound is O=C1/C(=C/c2ccc3c(c2)OCO3)Sc2scc(-c3ccc(O)c(O)c3)[n+]21
Ans: 25.5 µM

Q: Any idea what its TGI is? The compound is CC(=O)OCC1OC(N2C(=O)CC(N)=Nc3ccccc32)C(OC(C)=O)C(OC(C)=O)C1OC(C)=O (centres undefined)
Ans: > 100 µM

Q: Any idea what its TGI is? The compound is CCOC(=O)c1c(C(F)(F)F)n([O-])c2ccc(Cl)cc2[n+]1=O
Ans: 2.83 µM

Q: Any idea what its TGI is? The compound is O=C1CC(NC2CC(=O)c3c(Br)sc(Br)c32)c2c(Br)sc(Br)c21 (centres undefined)
Ans: 27.8 µM

Q: Any idea what its TGI is? The compound is O=Cc1c[nH]c2ccc(-c3csc4ccccc34)cc12
Ans: 13.1 µM

Q: Any idea what its TGI is? The compound is CCOC(=O)CCC(NC(=O)c1ccc(OCc2ccc3nc(OC)c(OC)nc3c2)cc1)C(=O)OCC (centres undefined)
Ans: > 100 µM

Q: Any idea what its TGI is? The compound is C=CC(Br)(CBr)CCC(Br)C(C)(C)Br (centres undefined)
Ans: 16 µM

Q: Any idea what its TGI is? The compound is O=[N+]([O-])c1ccc(Oc2cccc(C(F)(F)F)c2)c([N+](=O)[O-])c1
Ans: 11.3 µM

Q: Any idea what its TGI is? The compound is Cc1cc(O)c2c(c1)C(=O)C=C(Br)C2=O
Ans: > 60.5 µM

Q: Any idea what its TGI is? The compound is Nc1nc(Cl)cc(NCC2(CO)CC(c3ccccc3)C2)n1 (centres undefined)
Ans: > 100 µM

Q: Any idea what its TGI is? The compound is CN(C)CCCNC(=O)c1cccc2nc3ccccc3nc12
Ans: > 55.4 µM

Q: Any idea what its TGI is? The compound is CC12OC3(C(O)C1O)C(C(=O)O[C@H]3CO[Si](C)(C)C(C)(C)C)C2S(=O)(=O)c1ccccc1 (some centres undefined)
Ans: > 100 µM

Q: Any idea what its TGI is? The compound is O=C1CSc2sc(=S)sc2S1
Ans: > 100 µM

Q: Any idea what its TGI is? The compound is OCCSCc1cc(Cl)cc(Cl)c1O
Ans: > 100 µM

Q: Any idea what its TGI is? The compound is O=NNc1ccc(Sc2ccc3ccccc3c2)cn1
Ans: > 100 µM

Q: Any idea what its TGI is? The compound is O=S(=O)(CC(O)C(Cl)(Cl)Cl)NNc1ccccc1 (centres undefined)
Ans: > 100 µM

Q: Any idea what its TGI is? The compound is CCOc1ccc(/C=N\N2C(=O)c3ccccc3C2=O)cc1
Ans: > 100 µM

Q: Any idea what its TGI is? The compound is CC(N)CN.CC(N)CN.[Cl-].[O]=[Os+2]=[O] (centres undefined)
Ans: > 100 µM

Q: Any idea what its TGI is? The compound is CNC(=O)C1CCC(=O)N1CN(C(C)=O)c1ccccc1 (centres undefined)
Ans: > 100 µM
